# Tested on: Sam68 (KHDRBS1)
# experimental-protocol: compounds binding KHDRBS1 protein – biochemical, small-molecule microarray, 635 nm fluorescence, primary screen (AID 1125);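 note: score merges 667 nm channel intensity with signal to noise over triplicate slides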
# conditions-used: higher = more signal
Let's look at some molecules and their measured composite z-score.
Number only, no unit.

Take a look at these entries with their results.
COC(=O)C[C@H]1O[C@@]2(C[C@@H]1[Si](C)(C)C)C(=O)N(C)c1ccccc12 ... 0.86
[N-]=[N+]=Nc1ccccc1[C@@H]1OC(c2ccc(OCCCO)cc2)=N[C@]1(CCS(=O)(=O)c1ccccc1)C(=O)NCC(O)CO (some centres undefined) ... 0.885
COc1ccc([Si](C)(C)[C@@H]2[C@@H](CC(=O)N3Cc4ccccc4C[C@H]3CO)O[C@]3(C(=O)N(Cc4ccc(N5CCOC5=O)cc4)c4ccccc43)[C@H]2C)cc1 ... 1.27

Inquiry: I would be grateful if you could share the reported composite z-score for "COC(=O)[C@@]1(Cc2ccc(F)cc2)[C@H]2c3cc(C(=O)N(C)C)n(CCc4ccc(O)c(O)c4)c3C[C@H]2CN1C(=O)c1ccccc1" .
Reply text: 0.0409

====

# Lookup of reported z-score keyed by entry
# experimental-protocol: resazurin metabolic signal in A549 cells – cell-based, resazurin fluorescence, 24 h, PK04 Diversity Set, profiling panel (AID 1171); note: test concentration not given here
# conditions-used: A549 viability, higher = more signal, called active from +8 up or from −8 down
The source made the active and inactive calls.

Use these answered entries as a reference point.
Cc1ccc(S[C@]2(C(=O)NC(C)C)CC(=O)N(C3CCCCC3)[C@@H]2c2ccc(CO)cc2I)cc1 ... 0.81 (inactive)
O=C1OCCC=C[C@H]2OC34C=CCN(c5ccc6ccccc6c5)C(=O)[C@H]3N(CCO)C(=O)[C@@H]4C12 (stereo not given in full) ... -0.751 (inactive)
COC(=O)[C@@]1(Cc2ccc(F)cc2)[C@H]2c3cc(C(=O)N4CCCC4)n(CCc4ccccn4)c3C[C@H]2CN1C(=O)c1ccccc1 ... 0.182 (inactive)

Inquiry: Which z-score reading was recorded for the compound "COCCOC(=O)N1C(=O)[C@@]2(c3ccccc31)[C@H](C(=O)N1CCN(c3ncccn3)CC1)[C@H]1C(=O)O[C@H](c3ccccc3)[C@H](c3ccccc3)N1[C@@H]2c1ccccc1OCCO" ?
Reply text: -0.166 (inactive)

Inquiry: Fill in: z-score of O=C1NC(=O)C2C1C=CC(C(O)c1ccc([N+](=O)[O-])cc1)N2Nc1ccccn1 (stereo not given) is ___
Reply text: -0.0648 (inactive)

====

# assay-system: Torsin-1A (Homo sapiens)
# experimental-protocol: TOR1A wild-type binding on microarray – cell lysate, small-molecule microarray, lysate, 635/667 nm, primary screen (AID 1149)
# conditions-used: COS7 hTOR1A-WT lysate, 635 nm fluorescence, higher = more signal
Class key for composite z-score values: bottom (below 0.02), middle (0.02 to below 0.7), top (0.7 or more)

See these solved cases before continuing.
O=C1C2C=CC(C(O)c3ccc([N+](=O)[O-])cc3)N(Nc3ccccc3F)C2C(=O)N1c1ccccc1 (stereo not given) ... middle
CC(C)C(=C=CC[C@H](O)c1ccccc1OCCO)C[C@H](O)c1cc(Cl)cc(Cl)c1O ... top
C=CC[C@@]12N=C(c3ccc(OCCCO)cc3)O[C@@H]1c1ccccc1N(CCC)C2=O ... bottom
CCOC(=O)C1=CC[C@@H](c2ccc(OC)cc2)N(S(=O)(=O)c2ccc(C)cc2)[C@H]1CC ... middle

Inquiry: Band of "O=C1O[C@@H](c2ccccc2)[C@@H](c2ccccc2)N2[C@@H](c3ccc(OCCO)cc3)[C@]3(C(=O)Nc4ccc(C#CC5(O)CCCCCC5)cc43)[C@@H](C(=O)Nc3nc4ccccc4s3)[C@H]12" ?
Reply text: top

Inquiry: For this compound, which bin applies? "O=C1c2ccccc2[C@@]2(Cc3ccccc3N(Cc3ccccc3)C2=O)[C@H](c2ccc(CO)cc2)N1Cc1ccccc1Cl"
Reply text: bottom

====

# experimental-protocol: budding yeast growth changes without added modifier – OD600, strain BY4716, 24 h, basal condition, primary screen (AID 1173)
# conditions-used: S. cerevisiae BY4716 growth, OD600, 24 h, called active from +8 up or from −8 down
Activity calls are given as the source filed them.
# valid calls are class 1 for active, class 0 for inactive; nothing else

Example entries begin here.
COc1ccc([Si](C)(C)[C@@H]2[C@@H](CC(=O)N3Cc4ccccc4C[C@H]3CO)O[C@]3(C(=O)N(Cc4ccc(N5CCOC5=O)cc4)c4ccccc43)[C@H]2C)cc1 ... class 0
Cc1ccc(F)cc1S(=O)(=O)N[C@H]1CCN(Cc2ccc(OC(C)C)cc2)C1 ... class 1
C=CC[C@@]1(C(=O)OC)N=C(c2ccc(OCCCO)cc2)O[C@@H]1c1ccccc1N=[N+]=[N-] ... class 0
CC(C)NC(=O)[C@@H]1c2ccccc2C(=O)N(Cc2ccccc2C(F)(F)F)[C@H]1c1ccc(CO)cc1 ... class 0
C=CCC(OC(C)=O)[C@@H]1[C@@H](N(Cc2ccc(-c3ccccc3)cc2)C(=O)c2cccc3ccccc23)c2cc(OCCCO)ccc2N1C(=O)Cc1ccc(OC)cc1 (some centres not stated) ... class 0

Inquiry: Returns: the outcome recorded for C[C@@H]1NC(=O)C([C@@H](C)OCc2ccccc2)NC(=O)[C@@]23C(=O)N[C@@H](Cc4ccccc4)C2[C@H](C)[C@@]2(C)O[C@H]2C3/C=C/C/C=C\CNC1=O (some centres not stated) in this assay.
Reply text: class 0

Inquiry: Give the logged outcome of this assay for the following molecule: "C=C(CCCC)/C(=C/C[C@H](OC(=O)c1ccncc1)c1ccccc1OCCO)c1cc(C(=O)OC)ccc1OC"
Reply text: class 0

====

In this section we review reported composite z-score values for a set of compounds.
# experimental-protocol: probe aWnt5a binding to arrayed compounds – biochemical, biotinylated probe, 635/667 nm fluorescence, primary screen (AID 1113);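 note: score merges 667 nm fluorescence intensity with signal-to-noise per printed feature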
# conditions-used: small-molecule microarray, higher = more signal
Could you keep your reply to the number by itself?

O=C(NC1CC1)[C@@H]1c2ccccc2C(=O)N(Cc2ccc(OC(F)(F)F)cc2)[C@H]1c1ccc(CO)cc1 ... -0.0758
CCOC(=O)c1cn(C[C@H](Cc2ccccc2)NC(=O)N[C@H](CO)CCc2oc(C(C)=O)c(C(=O)OC)c2C(=O)OC)nn1 ... -0.0816
C=CCN1C(=O)[C@]2(O[C@H](CCn3cc([C@H](O)c4ccccc4)nn3)[C@@H]([Si](C)(C)c3ccc(OC)cc3)[C@@H]2C)c2cc(NC(=O)c3ccc(OC)cc3)ccc21 ... -0.0748

# context switch: different compound, same composite z-score
Inquiry: Which composite z-score value belongs to "COc1ccc([Si](C)(C)[C@H]2[C@H](CCO)O[C@@]3(C(=O)N(Cc4ccc(NC(=O)[C@H](C)O)cc4)c4ccccc43)[C@@H]2C)cc1" ?
Reply text: -0.105

====

# experimental-protocol: change in splice reporter luminescence, either direction, cell-based, HEK293, spliceosome inhibition project, primary screen (AID 1101);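 note: HEK293 cells carrying a splicing-competent luciferase reporter gene; test concentration not given here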
# conditions-used: HEK293 splicing luciferase reporter, 24 h, higher = more signal, called active from +8 up or from −8 down
Reported values of z-score for individual entries
Provide a numeric answer; units are not to be included.

Study these solved cases before continuing.
CC1CC/C=C\[C@H]2OC34C=CCN(CCN5CCOCC5)C(=O)[C@H]3N(CCCO)C(=O)[C@@H]4C2C(=O)O1 (some centres undefined) ... 0.316
C[C@]1(C(=O)O)c2ccccc2C(=O)N(Cc2cc(F)cc(C(F)(F)F)c2)[C@H]1c1ccc(CO)cc1 ... 0.395
C=CCC(OC(C)=O)[C@@H]1[C@@H](N(Cc2ccc(-c3cccc(C(F)(F)F)c3)o2)C(=O)Cc2ccc(F)cc2)c2cc(OCCCO)ccc2N1C(=O)Cc1ccc2ccccc2c1 (some centres undefined) ... 0.705
COCCOC(=O)N1C(=O)[C@@]2(c3cc(C#CCCO)ccc31)[C@H](C(N)=O)[C@H]1C(=O)O[C@H](c3ccccc3)[C@H](c3ccccc3)N1[C@@H]2c1ccccc1OCCO ... -0.871
COC(=O)[C@@]1(Cc2ccccc2)[C@H]2c3cc(C(=O)N(C)C)n(Cc4ccc(C(F)(F)F)nc4)c3C[C@H]2CN1C(=O)c1ccccc1 ... -1.16

Inquiry: Look at this molecule and give its reported z-score. OCCCC1=CC(c2ccc(CN3CCCC3)cc2)N(Cc2cccc(OC(F)(F)F)c2)CC1 (centres undefined)
Reply text: -1.35

Inquiry: GET /values?readout=z-score&item= "COc1ccc([Si](C)(C)[C@H]2[C@H](CC(=O)N3Cc4ccccc4C[C@H]3CO)O[C@@]3(C(=O)N(c4ccccc4)c4ccccc43)[C@@H]2C)cc1"
Reply text: -0.691

Inquiry: Look at this molecule and give its reported z-score. N#Cc1ccc(C(O)C2C=CC3C(=O)NC(=O)C3N2Nc2ccc(Cl)cc2Cl)cc1 (centres undefined)
Reply text: 1.9

Inquiry: Would you kindly share the measured z-score for COc1cc(C(O)C2C=CC3C(=O)N(c4ccccc4)C(=O)C3N2Nc2ccccc2F)cc(OC)c1OC (centres undefined) ?
Reply text: 0.392

Inquiry: For CC(C)C(CO)N1C(=O)[C@@H]2C3C(=O)OCCC/C=C\[C@H]3OC23C=CCN(Cc2ccccc2)C(=O)[C@@H]13 (some centres undefined) , what is its reported z-score?
Reply text: -0.0848

Inquiry: Fill in the blank: the reported z-score of "COC(=O)[C@@]1(Cc2ccc(F)cc2)[C@H]2c3cc(C(=O)N(C)C)n(C)c3C[C@H]2CN1C(=O)c1ccccc1" is ____.
Reply text: -0.84

Inquiry: Give the measured z-score of "O=C(NCc1ccc(F)cc1)[C@H]1C[C@H]2C(=O)N3CCC[C@H]3C(=O)N2[C@H]1c1ccc(O)cc1" .
Reply text: -1.62

Inquiry: What does the record list as z-score for "O=C1N(CCS(=O)(=O)c2ccccc2)c2ccccc2C[C@]12N=C(c1ccc(OCCCO)cc1)O[C@@H]2c1ccccc1" ?
Reply text: 0.276

Inquiry: State the recorded z-score for this entry: "COCCOC(=O)N1C(=O)[C@@]2(c3cc(C#CCCO)ccc31)[C@H](c1ccccc1OCCO)N1[C@H](c3ccccc3)[C@H](c3ccccc3)OC(=O)[C@H]1[C@@H]2C(N)=O"
Reply text: -1.51

Ref: PubChem BioAssay
